experiment: qHTS for Suppressors of FUS Proteinopathy: Primary screen using FUS-linked yeast assay; also: nearly all actives have a fitted effect of over 55% in size; conditions: S. cerevisiae FUS-expressing, OD600, 24 h; growth rescue; series mostly up to 76.6 µM
About 930 (0.24%) of roughly 390,000 compounds were called active. Roughly 5% stayed inconclusive and do not appear here. Calls follow the shape of the dose curve; as a rule, active = well fitted activation curve with a large enough effect; inconclusive = small, poorly fitted or top-dose-only effect; inactive = no such curve, though single readings can be large or run the other way. What follows is part of a selection rich in actives, with near analogues and random picks from the rest.
Output constraint: value belongs to active, inactive

Example results:
INSERT INTO results (line_notation, class_assignment) VALUES
  ('COc1ccc(-c2cn3c(n2)sc2cc(C(=O)Nc4ccccc4F)ccc23)cc1', 'inactive'),
  ('O=C(C[C@H]1C/C=C\C[C@@H](NC(=O)OCC2c3ccccc3-c3ccccc32)C(=O)O[C@@H](c2ccccc2)CNC1=O)N[C@H](CO)Cc1ccccc1', 'active'),
  ('Cc1ccc(NC(=O)CSc2nc3c([nH]c4ccccc43)c(=O)n2-c2ccccc2)c(C)c1', 'inactive');

input: // param item: Cc1ccccc1C(=O)Nc1nnc(S(=O)(=O)N(C)c2ccc(Cl)cc2)s1 ; yields the recorded call
output: inactive

Value source: PubChem BioAssay AID1347120
